Biological target: UniProtKB P31648
Assay: Inhibition of mouse GAT-1 assessed as percentage of remaining specific binding of NO711 at 1 uM after 4 hrs by LC-ESI-MS/ms analysis relative to control
Recorded Activity split into classes class 1 (below 40%), class 2 (40% to below 90%), class 3 (90% or more)

These recorded examples may help you get a feel for the data.
• Cc1noc(-c2ccccc2C=O)n1 = class 3
• COc1ccccc1/C=N/OCCN1CCCC(C(=O)O)C1 (racemic) = class 2
• O=Cc1cccn1-c1ccc(C(F)(F)F)cc1 = class 2
• O=C(O)C1CCCN(CCO/N=C/c2ccccc2-c2cccc3ccccc23)C1 (racemic) = class 2
• CC(/C=N/OCCN1CCCC(C(=O)O)C1)(CCC#N)c1ccccc1 (racemic) = class 1
• O=C(O)C1CCCN(CCO/N=C/c2cc3c(cc2-c2ccccc2)OCO3)C1 (racemic) = class 1

Q. Please indicate the class for Cc1ccccc1-c1ncccc1C=O based on its Activity.
A. class 2

Q. # bin label for O=C(O)C1CCCN(CCO/N=C/C2CC3C=CC2C3)C1 (racemic)
A. class 2

Q. Determine which band this compound sits in: O=Cc1ccc(C#Cc2ccccc2)s1
A. class 3
